Collected from the literature: IC50 of various compounds toward UniProtKB P51681.

{"compound": "Cc1[nH]c2ccc(OCCN3CCC(c4ccccc4)C3)cc2c1C(=O)OCc1ccccc1.Cl (stereo not shown)", "relation_qualifier": "=", "IC50 [nM]": 18000}
{"compound": "C[C@H]1CN(CC[C@]2(O)CC[C@@H](NC(=O)c3cc4c(OCc5coc6cc(O[C@H]7CCOC7)ccc56)cccc4[nH]3)CC2)CC[C@@H]1O", "relation_qualifier": "=", "IC50 [nM]": 9}
{"compound": "CN(C[C@@](C)(CCN1C2CCC1CC(NC(=O)O[C@H]1CCOC1)C2)c1ccccc1)S(=O)(=O)c1ccccc1 (stereo partly shown)", "relation_qualifier": "<", "IC50 [nM]": 100}
{"compound": "Cc1cc(C#N)nc(C)c1C(=O)N1CCC(C)(N2CCC(N3C(=O)N(CC4CCOC4)CC3c3ccccc3)CC2)CC1 (stereo not shown)", "relation_qualifier": "=", "IC50 [nM]": 54.4}

====

What follows is literature data on pIC50 for UniProt P51681.
pIC50: −log10 of the molar value.

{"compound": "CN(C[C@@](C)(CCN1CC[C@H]2CN(C(=O)OCc3ccccc3)C[C@H]2C1)c1ccccc1)S(=O)(=O)c1ccccc1", "pIC50": "> 7.00"}
{"compound": "CN(C[C@@](C)(CCN1CC[C@@H]2[C@@H](CCN2C(=O)OC(C)(C)C)C1)c1ccccc1)S(=O)(=O)c1ccccc1", "pIC50": "> 6.00"}
{"compound": "Cc1cc(C#N)nc(C)c1C(=O)N1CCC(C)(N2CCC(N3C(=O)N(C4CCC(O)CC4)C[C@H]3c3ccccc3)CC2)CC1 (some centres unmarked)", "pIC50": 7.69}
{"compound": "COc1cccc2occ(COc3cccc4[nH]c(C(=O)N[C@H]5CC[C@](O)(CCN6CC[C@H](O)[C@@H](C)C6)CC5)cc34)c12", "pIC50": 7.97}
{"compound": "O=C1/C(=C\\c2cccc(F)c2)SC(c2ccccc2)N1CCCN1CCOCC1 (centres unmarked)", "pIC50": 6.85}
{"compound": "CCCCC1CN(CC2CCOCC2)C(=O)CC12CCN(C1(C)CCN(C(=O)c3c(C)ccnc3C)CC1)CC2 (centres unmarked)", "pIC50": 7.86}
{"compound": "CN(CC(C)(CCN1CCC2C(CCN2C(=O)OC(C)(C)C)C1)c1ccccc1)S(=O)(=O)c1ccc(CNC(=O)O[C@H]2CCOC2)cc1 (some centres unmarked)", "pIC50": "> 7.00"}
{"compound": "CC1CN(CC[C@](C)(CN(C)S(=O)(=O)c2ccccc2)c2ccccc2)CCC12C=Cc1ccccc12 (some centres unmarked)", "pIC50": "> 6.00"}
{"compound": "O=C1/C(=C\\c2cccc(F)c2)SC(c2cccc(Cl)c2)N1CCCN1CCC(N2CCCCC2)CC1 (centres unmarked)", "pIC50": 6.40}
{"compound": "CC(C)[C@H](NC(=O)OCc1ccccc1)C(=O)N1CC2CN(C(=O)OC(C)(C)C)CC[C@H]2C1 (some centres unmarked)", "pIC50": "> 6.00"}
{"compound": "C[C@@H](NC(=O)N1CC2CCN(CC[C@](C)(CN(C)S(=O)(=O)c3ccccc3)c3ccccc3)C[C@@H]2C1)c1ccccc1 (some centres unmarked)", "pIC50": "> 7.00"}
{"compound": "Cc1ccc(S(=O)(=O)N2C[C@H]3CN(CC[C@](C)(CN(C)S(=O)(=O)c4ccccc4)c4ccccc4)CC[C@H]3C2)cc1", "pIC50": "> 6.00"}
{"compound": "C[C@H]1CN(CC[C@]2(O)CC[C@@H](NC(=O)c3cc4c(OC[C@@H]5COc6ccccc65)cccc4[nH]3)CC2)CC[C@@H]1O", "pIC50": 7.23}
{"compound": "CN(CC(C)(CCN1CCC2C(CCN2C(=O)OC2CCOC2)C1)c1ccccc1)S(=O)(=O)c1ccccc1 (centres unmarked)", "pIC50": "> 6.00"}
{"compound": "CCOCCCOc1ccc2c(COc3cccc4[nH]c(C(=O)N[C@H]5CC[C@](O)(CCN6CC[C@H](O)[C@@H](C)C6)CC5)cc34)coc2c1", "pIC50": 8.49}
{"compound": "CN(C[C@@](C)(CCN1CC2CCN(C(=O)OC(C)(C)C)C2C1)c1ccccc1)S(=O)(=O)c1ccccc1 (some centres unmarked)", "pIC50": "> 6.00"}
{"compound": "CN(CC(C)(CCN1CCC2C(CCN2C(=O)OC(C)(C)C)C1)c1ccccc1)S(=O)(=O)c1ccccc1 (centres unmarked)", "pIC50": "> 8.00"}
{"compound": "CC(C)(C)OC(=O)N1CCC2CN(C(=O)[C@@H](N)Cc3ccccc3)CCC21 (some centres unmarked)", "pIC50": "> 6.00"}
{"compound": "COC(=O)N1CCC(CN2C[C@@H](c3ccccc3)N(C3CCN(C4(C)CCN(C(=O)c5c(C)ncnc5C)CC4)CC3)C2=O)CC1", "pIC50": 7.59}
{"compound": "CN(C[C@@](C)(CCN1CC[C@H]2[C@H](CCN2C(=O)OC(C)(C)C)C1)c1ccccc1)S(=O)(=O)c1ccc(CNC(=O)O[C@H]2CCOC2)cc1", "pIC50": "> 6.00"}
{"compound": "CN(C[C@@](C)(CCN1CC[C@H]2CN(C(N)=O)C[C@H]2C1)c1ccccc1)S(=O)(=O)c1ccccc1", "pIC50": "> 6.00"}
{"compound": "CN(C[C@@](C)(CCN1C[C@H]2CCN(C(=O)OC(C)(C)C)C[C@H]2C1)c1ccccc1)S(=O)(=O)c1ccccc1", "pIC50": "> 7.00"}
{"compound": "CCCCC1CN(CC2CCC(O)CC2)C(=O)CC12CCN(C1(C)CCN(C(=O)c3c(C)ccnc3C)CC1)CC2 (centres unmarked)", "pIC50": 7.52}

====

Kindly find below IC50 information for C-C chemokine receptor type 5 (Homo sapiens, UniProt P51681) taken from the literature.

{"molecule": "CN(C[C@@](C)(CCN1CC[C@H]2CNC(=O)[C@H]2C1)c1ccccc1)S(=O)(=O)c1ccccc1", "assayed_target": "C-C chemokine receptor type 5 (Homo sapiens, UniProt P51681)", "relation_qualifier": "<", "IC50 [µM]": 1}
{"molecule": "CCC(/C=C1/SC(c2cccc(Cl)c2)N(CCCN2CCCCC2)C1=O)CC (stereo not shown)", "assayed_target": "C-C chemokine receptor type 5 (Homo sapiens, UniProt P51681)", "relation_qualifier": "=", "IC50 [µM]": 6.64}
{"molecule": "CN(C[C@@](C)(CCN1CCC2(CCCN2C(=O)OC(C)(C)C)CC1)c1ccccc1)S(=O)(=O)c1ccccc1", "assayed_target": "C-C chemokine receptor type 5 (Homo sapiens, UniProt P51681)", "relation_qualifier": "<", "IC50 [µM]": 1}
{"molecule": "CC(C)(C)OC(=O)N1CCC2CN(C(=O)[C@H](Cc3ccccc3)NC(=O)OCc3ccccc3)CCC21 (stereo partly shown)", "assayed_target": "C-C chemokine receptor type 5 (Homo sapiens, UniProt P51681)", "relation_qualifier": "<", "IC50 [µM]": 1}
{"molecule": "C[C@H]1CN(CC[C@]2(O)CC[C@@H](NC(=O)c3cc4c(OCc5coc6c5C(=O)CCC6)cccc4[nH]3)CC2)CC[C@@H]1O", "assayed_target": "C-C chemokine receptor type 5 (Homo sapiens, UniProt P51681)", "relation_qualifier": "=", "IC50 [µM]": 0.027}
{"molecule": "Cc1[nH]c2ccc(CCN(C)C3CCOCC3)cc2c1C(=O)OCc1ccccc1", "assayed_target": "C-C chemokine receptor type 5 (Homo sapiens, UniProt P51681)", "relation_qualifier": "=", "IC50 [µM]": 13.9}

====

# pIC50 against C-C chemokine receptor type 5 (Homo sapiens), merged from multiple literature sources
pIC50: −log10 of the molar value.

{"compound": "CC(=O)NCc1ccc(S(=O)(=O)N(C)CC(C)(CCN2CCC3C(CCN3C(=O)OC(C)(C)C)C2)c2ccccc2)cc1 (stereo not drawn)", "relation_qualifier": ">", "pIC50": 7.00}
{"compound": "CN(C[C@@](C)(CCNC1C2CCC1CN(C(=O)OC(C)(C)C)C2)c1ccccc1)S(=O)(=O)c1ccccc1 (stereo partly drawn)", "relation_qualifier": ">", "pIC50": 6.00}
{"compound": "CN(C)CC(C)(C)/C=C1/SC(c2cccc(Cl)c2)N(CCCN2CCCCC2)C1=O (stereo not drawn)", "relation_qualifier": "=", "pIC50": 5.55}
{"compound": "C[C@H]1CN(CC[C@]2(O)CC[C@@H](NC(=O)c3cc4c(OCC5CCC5)cccc4[nH]3)CC2)CC[C@@H]1O", "relation_qualifier": "=", "pIC50": 7.88}
{"compound": "CCCCC1CN(CC2CCCCO2)C(=O)CC12CCN(C1(C)CCN(C(=O)c3c(C)ncnc3C)CC1)CC2 (stereo not drawn)", "relation_qualifier": "=", "pIC50": 7.61}
{"compound": "O=C1/C(=C\\C2CCCCC2)SC(c2cccc(Cl)c2)N1CCCN1CCCCC1 (stereo not drawn)", "relation_qualifier": "=", "pIC50": 6.34}
{"compound": "CN(C[C@@](C)(CCN1CCC2C(CCN2C(=O)OC(C)(C)C)C1)c1ccccc1)S(=O)(=O)c1ccccc1 (stereo partly drawn)", "relation_qualifier": ">", "pIC50": 7.00}
{"compound": "O=C1/C(=C\\c2cccc(Cl)c2)SC(c2cccc(Cl)c2)N1CCCN1CCCCC1 (stereo not drawn)", "relation_qualifier": "=", "pIC50": 6.60}
{"compound": "CN(C[C@@](C)(CCN1C2CCC1CC(NC(=O)OC(C)(C)C)C2)c1ccccc1)S(=O)(=O)c1ccccc1 (stereo partly drawn)", "relation_qualifier": ">", "pIC50": 6.00}
{"compound": "Cc1noc(C(F)(F)F)c1C(=O)N1CCC(C)(N2CCC(N3C(=O)N(C[C@H]4CC[C@H](O)CC4)C[C@H]3c3ccccc3)CC2)CC1", "relation_qualifier": "=", "pIC50": 8.15}
{"compound": "CC(C)OCCOc1ccc2c(COc3cccc4[nH]c(C(=O)N[C@H]5CC[C@](O)(CCN6CC[C@H](O)[C@@H](C)C6)CC5)cc34)coc2c1", "relation_qualifier": "=", "pIC50": 8.48}
{"compound": "O=C1C(=Cc2ccccc2)[S+]([O-])C(c2cccc(Cl)c2)N1CCCN1CCCCC1 (stereo not drawn)", "relation_qualifier": "=", "pIC50": 5.51}
{"compound": "Cc1nnc(C2CO[C@H]3OCCC23)n1C1CC2CCC(C1)N2CC[C@H](N)c1ccccc1 (stereo partly drawn)", "relation_qualifier": ">", "pIC50": 6.00}
{"compound": "CC(C)(C)OC(=O)N1CC[C@H]2CN(C(=O)O[C@H]3CCOC3)C[C@H]2C1", "relation_qualifier": ">", "pIC50": 6.00}
{"compound": "O=C1/C(=C\\c2ccsc2)SC(c2cccc(Cl)c2)N1CCCN1CCCCC1 (stereo not drawn)", "relation_qualifier": "=", "pIC50": 5.98}
